The origin of these recorded values is patent US20210324080A1.

Target: T1, CTLA-4 on human T lymphocytes (PBMC, CD3+ T cells) (human, UniProt P16410 36-223)
T1 sequence (looked up): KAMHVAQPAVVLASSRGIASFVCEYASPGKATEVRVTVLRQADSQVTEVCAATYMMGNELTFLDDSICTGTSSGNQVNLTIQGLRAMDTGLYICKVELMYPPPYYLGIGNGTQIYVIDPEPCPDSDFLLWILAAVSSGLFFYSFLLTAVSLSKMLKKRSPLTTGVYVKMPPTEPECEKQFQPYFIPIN
Assay: cell-based or functional assay
recorded.metric: IL-2 secretion, pg/ml, at 30 ug/ml, N = 1 (pg/mL)
Number only, in pg/mL; omit the unit.

*Q* For the binder 97A8D1 fully human CTLA-4 antibody (human IgG1, kappa) (antibody, V domains shown, also called mAb49; mAb049) VH: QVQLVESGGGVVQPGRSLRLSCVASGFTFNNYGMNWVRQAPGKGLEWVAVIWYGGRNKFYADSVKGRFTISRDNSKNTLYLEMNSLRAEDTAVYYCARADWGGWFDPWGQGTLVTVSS VL: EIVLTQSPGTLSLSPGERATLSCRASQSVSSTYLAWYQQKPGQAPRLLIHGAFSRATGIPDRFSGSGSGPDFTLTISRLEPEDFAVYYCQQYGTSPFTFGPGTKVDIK , report IL-2 secretion, pg/ml, at 30 ug/ml, N = 1.
*A* 6090
